Value source: patent US20250163057A1

Below, each of the compounds is paired with its reported IC50 value.
- System: Cullin-3 (CUL3) neddylation
- test_name: AlphaLISA assay for Cullin-3 (CUL3) neddylation in TF 1 cells
- Assay type: cell-based
- condition_info: Homo sapiens, TF-1, 3 h, 3 hours treatment
assay_endpoint: IC50

compound="CCN1C(=O)[C@@H](NC(=O)c2nccc(C(F)(F)F)n2)[C@H](c2ccc(F)cc2)c2c(CC(=O)N[C@H](C)C#N)nn(-c3ccccc3)c21 (single isomer, unassigned)" assay_endpoint=IC50 reading="> 1000 nM"
compound=N#C[C@@H]1C[C@H]2C[C@H]2N1C(=O)c1nn(C2CCOCC2)c2c1[C@H](C1CC1)[C@H](NC(=O)c1cccc(C(F)(F)F)c1)C(=O)N2C1CC1 assay_endpoint=IC50 reading="≤ 100 nM"
compound=CCN1C(=O)[C@@H](NC(=O)c2cccc(C(F)(F)F)c2)[C@@H](C2CCC2)c2c(C(=O)N(CC#N)C3CC3)nn(C3CCOCC3)c21 assay_endpoint=IC50 reading="100 to 1000 nM"
